tested on: NCI-H209; assay: Antiproliferative activity against human NCI-H209 cells incubated for 72 hrs; type: functional, cell-based; settings: NCI-H209, 72 h
pIC50: −log10 of the molar value.
Let's look at some compounds and their measured pIC50.

>  <compound>
FC1CN(Cc2cc3c(cc2-c2cc4ccc5c(c4cn2)OCO5)OCO3)C1

>  <relation_sign>
<

>  <pIC50>
4.00

$$$$
>  <compound>
CN1CCC(C2CCN(Cc3cc4c(cc3-c3cc5ccc6c(c5cn3)OCO6)OCO4)CC2)CC1

>  <relation_sign>
=

>  <pIC50>
4.57

$$$$
>  <compound>
NC(=O)C1CCN(Cc2cc3c(cc2-c2cc4ccc5c(c4cn2)OCO5)OCO3)CC1

>  <relation_sign>
=

>  <pIC50>
4.11

$$$$
>  <compound>
c1c(CN2CC3(CCC3)C2)c(-c2cc3ccc4c(c3cn2)OCO4)cc2c1OCO2

>  <relation_sign>
=

>  <pIC50>
4.30

$$$$
>  <compound>
FC(F)(F)C1CCN(Cc2cc3c(cc2-c2cc4ccc5c(c4cn2)OCO5)OCO3)CC1

>  <relation_sign>
<

>  <pIC50>
4.00

$$$$
>  <compound>
CCC1CCCC(C)N1Cc1cc2c(cc1-c1cc3ccc4c(c3cn1)OCO4)OCO2 (stereo not drawn)

>  <relation_sign>
=

>  <pIC50>
4.94

$$$$
>  <compound>
c1c(CN2CCCCC2)c(-c2cc3ccc4c(c3cn2)OCO4)cc2c1OCO2

>  <relation_sign>
=

>  <pIC50>
4.25

$$$$
>  <compound>
c1c(CN2CCC(C3CC3)CC2)c(-c2cc3ccc4c(c3cn2)OCO4)cc2c1OCO2

>  <relation_sign>
<

>  <pIC50>
4.00

$$$$
